- System: C. difficile NAP1/027 ATCC BAA-1803
- protocolDescription: MIC broth microdilution, C. difficile NAP1/027 ATCC BAA-1803
- Assay type: cell-based, Clostridium difficile
- testConditions: Clostridioides difficile, ATCCBAA1803; 24 hr incubation; read-out: MIC C. difficile NAP1/027 ATCC BAA-1803 24 hr
measuredProperty: MIC

The molecule listed as Cc1ncc([N+](=O)[O-])n1CCn1cc(CCC(=O)O)nn1 [Compound 4r] has a reported MIC of > 64 µg/mL

The molecule listed as Cc1ncc([N+](=O)[O-])n1CCn1cc(CN)nn1.O=C(O)C(F)(F)F [Compound 4t] has a reported MIC of > 64 µg/mL

The molecule listed as Cc1ncc([N+](=O)[O-])n1CCn1cc(CN2CCS(=O)(=O)CC2)nn1 [Compound 4o] has a reported MIC of > 64 µg/mL

The molecule listed as Cc1ncc([N+](=O)[O-])n1CCn1cc(C(O)c2ccccc2)nn1 (stereo not shown) [Compound 4l] has a reported MIC of 0.5 to 1 µg/mL
